pIC50: −log10 of the molar value.
Field: pIC50. System: Receptor-type tyrosine-protein phosphatase F (Homo sapiens, UniProt P10586). Provenance: assorted publications.
Sequence (P10586 whole entry): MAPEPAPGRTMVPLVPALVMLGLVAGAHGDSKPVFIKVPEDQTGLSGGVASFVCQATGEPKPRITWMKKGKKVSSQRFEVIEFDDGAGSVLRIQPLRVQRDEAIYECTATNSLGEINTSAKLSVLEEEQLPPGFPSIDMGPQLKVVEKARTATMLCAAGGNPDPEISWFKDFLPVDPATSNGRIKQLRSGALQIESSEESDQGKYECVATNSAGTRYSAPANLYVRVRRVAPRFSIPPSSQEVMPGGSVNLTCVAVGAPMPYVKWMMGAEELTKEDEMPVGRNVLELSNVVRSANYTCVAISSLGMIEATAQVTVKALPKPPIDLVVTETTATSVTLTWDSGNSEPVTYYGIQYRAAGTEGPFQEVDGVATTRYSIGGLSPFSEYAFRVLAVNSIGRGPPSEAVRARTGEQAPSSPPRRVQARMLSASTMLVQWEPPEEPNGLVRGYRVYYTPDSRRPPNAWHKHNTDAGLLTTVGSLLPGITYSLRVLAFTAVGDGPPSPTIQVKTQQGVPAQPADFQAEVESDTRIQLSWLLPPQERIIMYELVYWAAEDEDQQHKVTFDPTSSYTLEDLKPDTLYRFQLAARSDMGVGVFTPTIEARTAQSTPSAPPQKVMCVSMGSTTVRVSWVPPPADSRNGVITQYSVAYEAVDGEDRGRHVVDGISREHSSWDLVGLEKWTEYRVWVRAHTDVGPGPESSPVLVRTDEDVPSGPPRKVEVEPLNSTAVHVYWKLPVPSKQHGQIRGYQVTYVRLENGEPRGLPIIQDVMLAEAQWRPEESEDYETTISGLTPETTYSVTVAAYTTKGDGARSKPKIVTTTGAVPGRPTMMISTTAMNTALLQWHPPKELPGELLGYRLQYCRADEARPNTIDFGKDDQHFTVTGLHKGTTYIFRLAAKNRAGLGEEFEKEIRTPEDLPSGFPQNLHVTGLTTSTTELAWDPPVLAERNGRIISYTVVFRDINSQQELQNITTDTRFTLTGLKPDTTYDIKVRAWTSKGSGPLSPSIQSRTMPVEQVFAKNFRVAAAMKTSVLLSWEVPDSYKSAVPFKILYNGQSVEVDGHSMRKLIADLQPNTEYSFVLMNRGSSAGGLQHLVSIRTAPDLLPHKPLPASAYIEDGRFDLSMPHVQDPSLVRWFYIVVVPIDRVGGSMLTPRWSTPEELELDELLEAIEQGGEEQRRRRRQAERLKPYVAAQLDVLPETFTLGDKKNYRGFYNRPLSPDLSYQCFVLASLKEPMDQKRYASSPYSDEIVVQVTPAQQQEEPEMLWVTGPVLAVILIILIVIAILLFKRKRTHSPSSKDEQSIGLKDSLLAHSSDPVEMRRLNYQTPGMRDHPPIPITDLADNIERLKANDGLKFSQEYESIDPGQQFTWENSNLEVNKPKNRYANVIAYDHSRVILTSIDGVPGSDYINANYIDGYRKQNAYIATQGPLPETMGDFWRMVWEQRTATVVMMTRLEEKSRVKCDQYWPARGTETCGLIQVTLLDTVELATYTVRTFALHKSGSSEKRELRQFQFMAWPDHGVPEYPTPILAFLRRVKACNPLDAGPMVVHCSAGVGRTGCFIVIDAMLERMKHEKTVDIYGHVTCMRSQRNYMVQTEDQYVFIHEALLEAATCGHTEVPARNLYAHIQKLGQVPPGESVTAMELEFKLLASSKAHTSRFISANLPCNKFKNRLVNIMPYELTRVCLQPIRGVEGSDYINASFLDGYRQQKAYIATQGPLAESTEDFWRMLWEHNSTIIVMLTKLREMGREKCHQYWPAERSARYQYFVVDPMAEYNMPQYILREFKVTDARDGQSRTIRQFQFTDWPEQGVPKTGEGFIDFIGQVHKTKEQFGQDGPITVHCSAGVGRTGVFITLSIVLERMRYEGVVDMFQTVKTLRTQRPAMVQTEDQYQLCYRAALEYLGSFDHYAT

The following compounds have reported results that may help.
[
  {
    "Compound Structure String": "CO[C@H]1O[C@H](Cn2cc(CNc3nc(Cl)c4ncn(Cc5cn(C[C@H]6O[C@H](OC)[C@H](OCc7ccccc7)[C@@H](OCc7ccccc7)[C@H]6OCc6ccccc6)nn5)c4n3)nn2)[C@H](OCc2ccccc2)[C@H](OCc2ccccc2)[C@H]1OCc1ccccc1",
    "pIC50": "< 4.10"
  },
  {
    "Compound Structure String": "CO[C@H]1O[C@H](Cn2cc(Cn3cnc4c(Cl)nc(N)nc43)nn2)[C@@H](OCc2ccccc2)[C@H](OCc2ccccc2)[C@H]1OCc1ccccc1",
    "pIC50": "< 4.10"
  },
  {
    "Compound Structure String": "CO[C@H]1O[C@H](Cn2cc(Cn3cnc4c(Cl)nc(N)nc43)nn2)[C@H](OCc2ccccc2)[C@H](OCc2ccccc2)[C@H]1OCc1ccccc1",
    "pIC50": "< 4.10"
  },
  {
    "Compound Structure String": "COc1cc(/C=C2\\SC(=S)N(c3cccc(Cl)c3)C2=O)cc([N+](=O)[O-])c1O",
    "pIC50": "< 4.30"
  }
]

Entry O=C(O)C(=O)c1ccc(-n2cc(CO[C@H]3O[C@H](COCc4ccccc4)[C@@H](OCc4ccccc4)[C@H](OCc4ccccc4)[C@H]3OCc3ccccc3)nn2)cc1 ; assay system Receptor-type tyrosine-protein phosphatase F (Homo sapiens, UniProt P10586); pIC50 recorded at < 4.00
